experimental_target: T1, human LILRB4 extracellular domain (ECD) recombinant protein (human, UniProt Q8NHJ6 22-259)
T1 construct: extracellular domain; also called LILRB4 ECD; LILRB4-ECD
assay_text: ELISA, coated LILRB4 ECD
Can you tell me pEC50 for the items I'm about to list?
Entry type: numeric. Quantity: pEC50, the -log10 of concentration in molar units.

Query: Sample B4-116-1 (antibody, V domains shown, Rabbit monoclonal antibody) VH: EQSVEESGGDLVKPGASLTLTCAASGFSFSSTYCMCWVRQAPGKGLEWIACIHGVSTNNRWYASWPKGRFTISKTSSTTVTLQMTSLTAADTATYFCARSDTDYEWGLSLWGPGTLVTISS VL: ELDLTQTPASVSEPVGGTVTIKCQASESIGSRLAWYQQKPGQRPKLLIYKASTLASGVPSRFSGSGSGTEFTLTVSDLECADVAAYYCQCAGQSSTWAFGGGTEVEIK — what was its pEC50?
Response: 8.59

Query: Sample B4-49 (antibody, V domains shown, Rabbit monoclonal antibody) VH: QSLEESGGDLVKPGASLTLTCTASGFDFSSSGWICWVRQAPGKGLELIACIYSGRSGSTYYASWAKGRVTISKTSSTTVTLQMTSLTAADTATYFCARALYVDYVDYDYIDLWGPGTLVTVSS VL: ELDLTQTPASVEAAVGGTVTIKCQASQSTGIRLAWYQQKPGQPPKLLMYATSNLASGVSSRFKGSGSGTEFTLTISDLECADAATYYCQYSYYGSSYVFDFGGGTEVEIK — what was its pEC50?
Response: 9.00

Query: Sample B4-86 (antibody, V domains shown, Rabbit monoclonal antibody) VH: EQSVESGGDLVKPEGSLTLTCTVSGFSFSSSYWICWVRQAPGKGLEWIGCIGTGSGSTYYGSWAKGRFTISKTSSTTVTLQMTSLTAADTATYFCVRGAGYSSYRLWGPGTLVTISS VL: ELDMTQTPASVSEPVGGTVTIKCQASESVSNWLAWYQQKPGQRPKLLIYGASTLESGVPSRFSGSGSGTEFTLTISNLECADAATYYCQQGYDWDNIDNAFGGGTEVVVK — what was its pEC50?
Response: 8.99
